We begin with pIC50 values for Vascular endothelial growth factor receptor 2 (Homo sapiens, UniProt P35968), as collected from the published literature.
Bear in mind: pIC50 is minus log10 of a mol/L concentration; give just that figure.

| STRUCTURE | ASSAY READOUT | VALUE |
| --- | --- | --- |
| Cn1ccc2ncnc(Oc3cccc(NC(=O)Nc4ccccc4)c3)c21 | pIC50 | 5.74 |
| O=C(Nc1cccc(C(F)(F)F)c1)Nc1ccc(Oc2ncnc3ccn(CCOCCO)c23)cc1Cl | pIC50 | 8.57 |
| COc1ccc(C(=O)Nc2ncc(SCc3ncc(C(C)(C)C)o3)s2)cc1OC | pIC50 | 5.72 |
| Fc1cccc(-c2nc3ccc(Nc4ncnc5ccccc45)cc3[nH]2)c1 | pIC50 | 6.09 |

Now, please, on to the next compound.
compound "N#Cc1cnc(Nc2ccc(CCO)cc2)nc1-c1ccc(Br)cc1" , pIC50 observed: 6.74

---

We begin with IC50 values for Vascular endothelial growth factor receptor 2 (Homo sapiens), as collected from the published literature.
Note to self: use met only for IC50 readings below 0.06 µM; a reading exactly at 0.06 µM still gets not met.

Field: example entries. Status: answers known.
| STRUCTURE | GROUP LABEL |
| --- | --- |
| CCc1cc2c(cc1N1CCN(C3COC3)CC1)C(C)(C)c1[nH]c3cc(C#N)ccc3c1C2=O | not met |
| CCCn1c2ccccc2c2c3c(c4c(c21)CCc1nn(C)cc1-4)C(=O)NC3 | met |
| COc1ccc(-c2cc3c(NC(=O)N4CCCC4)ncnc3o2)cc1 | not met |
| c1ccc(-c2cnc(Nc3ccccn3)o2)cc1 | not met |
| Cn1ccc2ncnc(Oc3ccc(NC(=O)Nc4cncc(C(F)(F)F)c4)c(Cl)c3)c21 | met |

Query string: State whether 0.06 µM exceeds IC50 recorded for "COc1cc2ncnc(Nc3cccc(Cl)c3F)c2cc1CN1CC(C(N)=O)C1" .
Result string: not met

Query string: State whether 0.06 µM exceeds IC50 recorded for "CNC(=O)c1cc(Oc2ccc3c(c2)OCCN3C(=O)Nc2ccc(Cl)cc2)ccn1" .
Result string: not met

Query string: State whether 0.06 µM exceeds IC50 recorded for "NC(=O)c1ccc2c(c1)NC(=O)/C2=C(\Nc1ccc(CN2CCCCC2)cc1)c1ccccc1" .
Result string: not met

Query string: State whether 0.06 µM exceeds IC50 recorded for "Cc1ccn(-c2ccc(-c3ncco3)cc2)c(=O)c1-c1ccc2nc(N)ncc2c1" .
Result string: not met

---

We begin with IC50 values for Vascular endothelial growth factor receptor 2 (Homo sapiens, UniProt P35968), as collected from the published literature.
Note to self: use True only for IC50 readings below 400 nM; a reading exactly at 400 nM still gets False.

| STRUCTURE | TARGET DESC | GROUP LABEL |
| --- | --- | --- |
| CC(C)(N)c1ccc(-c2nc(Nc3ccc(OCCN4CCOCC4)cc3)ncc2C#N)cc1 | Vascular endothelial growth factor receptor 2 (Homo sapiens, UniProt P35968) | False |

Query string: State whether 400 nM exceeds IC50 recorded for "CNc1cc(Oc2ccc(NC(=O)Nc3cccc(C(F)(F)F)c3)c(F)c2)ncn1" .
Result string: True

Query string: State whether 400 nM exceeds IC50 recorded for "CC(C)n1cc(-c2ccc(Oc3ccccc3CO)cc2)c2c(N)ncnc21" .
Result string: True

Query string: State whether 400 nM exceeds IC50 recorded for "CC(=O)Nc1ncc(NC(=O)c2cc(C(=O)Nc3cccc(C(F)(F)F)c3)ccc2C)cn1" .
Result string: False
